Hello, the source for this data is patent US20120231006A1, in case you need it.

# assaySystem: T1, hOrai1-mOrai1 ECL2 (SKPPA) protein (human/mouse chimera, UniProt Q96D31 1-301)
# T1 construct: also called Ch
# T1 sequence (Q96D31 other isoform, or with tags, fused parts or gaps): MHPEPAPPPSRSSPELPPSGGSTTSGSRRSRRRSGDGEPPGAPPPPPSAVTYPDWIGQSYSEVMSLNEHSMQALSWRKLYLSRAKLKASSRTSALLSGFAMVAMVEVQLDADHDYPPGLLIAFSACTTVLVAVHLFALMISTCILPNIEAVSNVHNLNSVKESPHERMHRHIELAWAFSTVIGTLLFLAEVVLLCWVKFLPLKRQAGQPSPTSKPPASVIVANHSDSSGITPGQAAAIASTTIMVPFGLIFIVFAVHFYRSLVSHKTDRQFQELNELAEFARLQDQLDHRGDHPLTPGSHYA
# assayProtocol: FACS, 293EBNA, RFI-POC grade
# Design: concentration or dose not given beside the values
quantityName: percent of control (POC) of FACS Geo Mean

binder: mAb 2D2.1 (antibody, human IgG2, lambda, V domains shown, fully human IgG2 lambda, Campaign 1; also called mAb 2D.1) VH: QVQLQQWGAGLLKPSETLSLTCAVYGGSFSGYYWSWIRQPPGKGLEWIGEIDHSGRINYNPALKSRLTISVDTSKNQFSLKLSSVTAADTAVYYCARAGSGGYEDWFDPWGQGTLVTVSS VL: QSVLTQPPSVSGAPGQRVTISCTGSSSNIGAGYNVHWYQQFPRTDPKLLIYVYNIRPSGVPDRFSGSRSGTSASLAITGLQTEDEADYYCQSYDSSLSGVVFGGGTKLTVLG
result: 5 to 40%
